Data credit: patent US20250188102A1

# ASSAY NAME: in vivo
# TEST CONTEXT: male, Sprague-Dawley, rat, po, 5 mg/kg, Cmax
QUANTITY MEASURED: Cmax (ng/mL)

structure_notation=Cn1cnc(Cn2c(=O)[nH]/c(=N\c3cc4nn(C)cc4cc3Cl)n(Cc3cc(F)c(F)cc3F)c2=O)n1 quantity_measured=Cmax units_of_measure=ng/mL test_result=4520

====

# ASSAY NAME: in vitro
# TEST CONTEXT: human, glucose culture HepG2 CC50
QUANTITY MEASURED: CC50 (µM)

compound="C=C(C)[C@H]1Cc2c(ccc3c2O[C@@H]2COc4cc(OC)c(OC)cc4[C@@H]2C3=O)O1 [Rotenone, reference compound]" units_of_measure=µM test_result=2.33
compound=O=C(O)/C=C/C(=O)O.[2H]C([2H])([2H])n1cnc(Cn2c(=O)[nH]/c(=N\c3cc4cn(C)nc4cc3Cl)n(Cc3cc(F)c(F)cc3F)c2=O)n1 units_of_measure=µM test_result=202

====

# ASSAY NAME: in vitro
# Assay type: cell-based
# TEST CONTEXT: human; HEp2, 3 days; read-out: CC50
QUANTITY MEASURED: CC50

compound="CC(=O)O[C@H]1C(=O)[C@@]2(C)[C@H]([C@H](OC(=O)c3ccccc3)[C@]3(O)C[C@H](OC(=O)[C@H](O)[C@@H](NC(=O)c4ccccc4)c4ccccc4)C(C)=C1C3(C)C)[C@]1(OC(C)=O)CO[C@@H]1C[C@@H]2O [Pacitaxel]" quantity_measured=CC50 test_result="30 nM"
compound="O=C(O)/C=C/C(=O)O.[2H]C([2H])([2H])n1cnc(Cn2c(=O)[nH]/c(=N\\c3cc4cn(C)nc4cc3Cl)n(Cc3cc(F)c(F)cc3F)c2=O)n1 [SHEN211]" quantity_measured=CC50 test_result="> 100000 nM"

====

# ASSAY NAME: in vitro
# Type: cell-based
# TEST CONTEXT: human
QUANTITY MEASURED: CC50

structure_notation=Cn1cnc(Cn2c(=O)[nH]/c(=N\c3cc4nn(C)cc4cc3Cl)n(Cc3cc(F)c(F)cc3F)c2=O)n1 test_result="> 100 µM"

====

# ASSAY NAME: in vitro
# Assay type: cell-based
# TEST CONTEXT: human
QUANTITY MEASURED: CC50

structure_notation=Cn1cnc(Cn2c(=O)[nH]/c(=N\c3cc4nn(C)cc4cc3Cl)n(Cc3cc(F)c(F)cc3F)c2=O)n1 test_result="> 100 µM"

====

// reported half-life per item
# ASSAY NAME: in vivo
# TEST CONTEXT: male, Sprague-Dawley, rat, po, 5 mg/kg, T1/2
QUANTITY MEASURED: half-life

compound="O=C(O)/C=C/C(=O)O.[2H]C([2H])([2H])n1cnc(Cn2c(=O)[nH]/c(=N\\c3cc4cn(C)nc4cc3Cl)n(Cc3cc(F)c(F)cc3F)c2=O)n1 [SHEN211]" quantity_measured=half-life test_result="3.22 h"
compound="Cn1cnc(Cn2c(=O)[nH]/c(=N\\c3cc4nn(C)cc4cc3Cl)n(Cc3cc(F)c(F)cc3F)c2=O)n1 [CVL201]" quantity_measured=half-life test_result="2.89 h"
compound="[2H]C([2H])([2H])n1cnc(Cn2c(=O)nc(Nc3cc4cn(C([2H])([2H])[2H])nc4cc3Cl)n(Cc3cc(F)c(F)cc3F)c2=O)n1 [Compound I-24]" quantity_measured=half-life test_result="3.51 h"
compound="[2H]C([2H])([2H])n1cnc(Cn2c(=O)n(COC(=O)OC(C)C)/c(=N\\c3cc4cn(C)nc4cc3Cl)n(Cc3cc(F)c(F)cc3F)c2=O)n1 [Compound I-19]" quantity_measured=half-life test_result="2.91 h"
compound="[2H]C([2H])([2H])n1cnc(Cn2c(=O)[nH]/c(=N\\c3cc4cn(C)nc4cc3Cl)n(Cc3cc(F)c(F)cc3F)c2=O)n1 [Compound I-2]" quantity_measured=half-life test_result="3.04 h"

====

# ASSAY NAME: in vivo
# TEST CONTEXT: male, Sprague-Dawley, rat, po, 5 mg/kg, Cmax, SD rat
Quick reference: Cmax of the listed items.
QUANTITY MEASURED: Cmax (ng/mL)

molecule="[2H]C([2H])([2H])n1cnc(Cn2c(=O)n(COC(=O)OC(C)C)/c(=N\\c3cc4cn(C)nc4cc3Cl)n(Cc3cc(F)c(F)cc3F)c2=O)n1 [Compound I-19]" units_of_measure=ng/mL test_result=6180
molecule="O=C(O)/C=C/C(=O)O.[2H]C([2H])([2H])n1cnc(Cn2c(=O)[nH]/c(=N\\c3cc4cn(C)nc4cc3Cl)n(Cc3cc(F)c(F)cc3F)c2=O)n1 [SHEN211]" units_of_measure=ng/mL test_result=4710
molecule="[2H]C([2H])([2H])n1cnc(Cn2c(=O)[nH]/c(=N\\c3cc4cn(C)nc4cc3Cl)n(Cc3cc(F)c(F)cc3F)c2=O)n1 [Compound I-2]" units_of_measure=ng/mL test_result=6020
molecule="[2H]C([2H])([2H])n1cnc(Cn2c(=O)nc(Nc3cc4cn(C([2H])([2H])[2H])nc4cc3Cl)n(Cc3cc(F)c(F)cc3F)c2=O)n1 [Compound I-24]" units_of_measure=ng/mL test_result=5210

====

# ASSAY NAME: in vitro
# Format: in vitro ADME
# TEST CONTEXT: rat, hepatocytes
// reported half-life at 0.5 μM for each item listed
QUANTITY MEASURED: half-life at 0.5 μM

molecule="[2H]C([2H])([2H])n1cnc(Cn2c(=O)[nH]/c(=N\\c3cc4cn(C)nc4cc3Cl)n(Cc3cc(F)c(F)cc3F)c2=O)n1 [Compound I-2]" quantity_measured="half-life at 0.5 μM" test_result="89 h"
molecule="[2H]C([2H])(c1ncn(C)n1)n1c(=O)nc(Nc2cc3cn(C)nc3cc2Cl)n(Cc2cc(F)c(F)cc2F)c1=O [Compound I-3]" quantity_measured="half-life at 0.5 μM" test_result="8.28 h"

====

# ASSAY NAME: in vitro
# Format: cell-based
# TEST CONTEXT: human; MRC-5, 3 days; read-out: CC50
# Protocol: Nine cell lines originated from different human tissues (Table 2) are selected to evaluate the cytotoxicity of the tested compounds. Sorafenib or Taxol are used as cytotoxic control compounds. […] Cells are cultured in culture medium containing 10% FBS, 5% CO2 and 37° C. for 3 days, and then cell viability was detected by CellTiter-Glo reagent. […] The dose-response curves of the compounds are analyzed by GraphPad Prism software and CC50 values are calculated. […]
The entries below come with measured CC50 values attached.
QUANTITY MEASURED: CC50 (µM)

compound="O=C(O)/C=C/C(=O)O.[2H]C([2H])([2H])n1cnc(Cn2c(=O)[nH]/c(=N\\c3cc4cn(C)nc4cc3Cl)n(Cc3cc(F)c(F)cc3F)c2=O)n1 [SHEN211]" comparison_operator=> test_result=100
compound="CNC(=O)c1cc(Oc2ccc(NC(=O)Nc3ccc(Cl)c(C(F)(F)F)c3)cc2)ccn1 [Sorafenib]" comparison_operator== test_result=13.8

====

Below is a list of entries, each paired with its recorded CC50 value.
# ASSAY NAME: in vitro
# Type: cell-based
# TEST CONTEXT: human; HIHeLa, 3 days; read-out: CC50
# Experimental: Nine cell lines originated from different human tissues (Table 2) are selected to evaluate the cytotoxicity of the tested compounds. Sorafenib or Taxol are used as cytotoxic control compounds. […] Cells are cultured in culture medium containing 10% FBS, 5% CO2 and 37° C. for 3 days, and then cell viability was detected by CellTiter-Glo reagent. […] The dose-response curves of the compounds are analyzed by GraphPad Prism software and CC50 values are calculated. […]
QUANTITY MEASURED: CC50 (nM)

structure_notation=O=C(O)/C=C/C(=O)O.[2H]C([2H])([2H])n1cnc(Cn2c(=O)[nH]/c(=N\c3cc4cn(C)nc4cc3Cl)n(Cc3cc(F)c(F)cc3F)c2=O)n1 comparison_operator=> test_result=100000
structure_notation=CC(=O)O[C@H]1C(=O)[C@@]2(C)[C@H]([C@H](OC(=O)c3ccccc3)[C@]3(O)C[C@H](OC(=O)[C@H](O)[C@@H](NC(=O)c4ccccc4)c4ccccc4)C(C)=C1C3(C)C)[C@]1(OC(C)=O)CO[C@@H]1C[C@@H]2O comparison_operator== test_result=20

====

# MEASURED TARGET: MERS Mpro protease (Middle East respiratory syndrome-related coronavirus (isolate United Kingdom/H123990006/2012) (MERS-CoV) (Betacoronavirus England 1), UniProt K9N7C7)
# Sequence (K9N7C7 3248-3553 limits assumed): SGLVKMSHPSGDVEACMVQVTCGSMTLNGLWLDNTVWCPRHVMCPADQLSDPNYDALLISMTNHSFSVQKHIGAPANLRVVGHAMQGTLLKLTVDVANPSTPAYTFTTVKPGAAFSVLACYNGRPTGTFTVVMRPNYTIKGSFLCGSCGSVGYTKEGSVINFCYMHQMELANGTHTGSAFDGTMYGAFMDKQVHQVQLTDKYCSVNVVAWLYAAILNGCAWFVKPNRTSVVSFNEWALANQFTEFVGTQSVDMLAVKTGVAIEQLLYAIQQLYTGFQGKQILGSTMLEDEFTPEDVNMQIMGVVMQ
# ASSAY NAME: biochemical
QUANTITY MEASURED: IC50 (mM)

structure_notation=Cn1cnc(Cn2c(=O)[nH]/c(=N\c3cc4nn(C)cc4cc3Cl)n(Cc3cc(F)c(F)cc3F)c2=O)n1 test_result=4.96
